tested on: Escherichia coli TOP10; test: shrunken log2 fold change of peptide-encoding DNA abundance (4.5 h post-induction vs induction); higher = less antimicrobial activity (less host growth inhibition); settings: time post-induction: 4.5 h; library: site-saturation at positions 5, 18, 19, 20
ASSAY_ENDPOINT: shrunken log2 fold change

- SEQUENCE_CHAIN: "RRIRWRPPRLPRPRPRPYQAPRP"
  QUANTITATIVE_RESULT: -0.0526
- SEQUENCE_CHAIN: "RRIRTRPPRLPRPRPRPHGSPRP"
  QUANTITATIVE_RESULT: -0.01
- SEQUENCE_CHAIN: "RRIRDRPPRLPRPRPRPKDRPRP"
  QUANTITATIVE_RESULT: 0.0874
- SEQUENCE_CHAIN: "RRIRARPPRLPRPRPRPGVKPRP"
  QUANTITATIVE_RESULT: 0.0545
- SEQUENCE_CHAIN: "RRIRFRPPRLPRPRPRPTDAPRP"
  QUANTITATIVE_RESULT: 0.00734
- SEQUENCE_CHAIN: "RRIRCRPPRLPRPRPRPMAAPRP"
  QUANTITATIVE_RESULT: 0.476
- SEQUENCE_CHAIN: "RRIRCRPPRLPRPRPRPMEHPRP"
  QUANTITATIVE_RESULT: -0.0605
- SEQUENCE_CHAIN: "RRIRMRPPRLPRPRPRPQSAPRP"
  QUANTITATIVE_RESULT: 0.055
- SEQUENCE_CHAIN: "RRIRRRPPRLPRPRPRPPYAPRP"
  QUANTITATIVE_RESULT: 0.774
- SEQUENCE_CHAIN: "RRIRLRPPRLPRPRPRPCDTPRP"
  QUANTITATIVE_RESULT: -0.131
- SEQUENCE_CHAIN: "RRIRMRPPRLPRPRPRPFGRPRP"
  QUANTITATIVE_RESULT: -0.00674
- SEQUENCE_CHAIN: "RRIRCRPPRLPRPRPRPYPIPRP"
  QUANTITATIVE_RESULT: -0.198
- SEQUENCE_CHAIN: "RRIRMRPPRLPRPRPRPNEHPRP"
  QUANTITATIVE_RESULT: 0.0235
- SEQUENCE_CHAIN: "RRIRDRPPRLPRPRPRPLCVPRP"
  QUANTITATIVE_RESULT: 0.248

----------
test system: Escherichia coli TOP10; assay: shrunken log2 fold change of peptide-encoding DNA abundance (4.5 h post-induction vs induction); higher = less antimicrobial activity (less host growth inhibition); conditions: time post-induction: 4.5 h; library: site-saturation at positions 5, 18, 19, 20;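 note: peptides expressed intracellularly from a pBAD plasmid library in pooled LB shake-flask culture, induced with 0.3% L-arabinose, DNA abundance read by NGS, three biological replicates, DESeq2 with apeglm shrinkage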

- SEQUENCE_CHAIN: "RRIRMRPPRLPRPRPRPNSSPRP"
  ASSAYED_SYSTEM: "Escherichia coli TOP10"
  shrunken log2 fold change: -0.1
- SEQUENCE_CHAIN: "RRIRHRPPRLPRPRPRPKNFPRP"
  ASSAYED_SYSTEM: "Escherichia coli TOP10"
  shrunken log2 fold change: -0.0655
- SEQUENCE_CHAIN: "RRIRRRPPRLPRPRPRPQKKPRP"
  ASSAYED_SYSTEM: "Escherichia coli TOP10"
  shrunken log2 fold change: -0.0695
- SEQUENCE_CHAIN: "RRIRCRPPRLPRPRPRPQMEPRP"
  ASSAYED_SYSTEM: "Escherichia coli TOP10"
  shrunken log2 fold change: 0.04
- SEQUENCE_CHAIN: "RRIRKRPPRLPRPRPRPVFKPRP"
  ASSAYED_SYSTEM: "Escherichia coli TOP10"
  shrunken log2 fold change: 0.288
- SEQUENCE_CHAIN: "RRIRRRPPRLPRPRPRPQCVPRP"
  ASSAYED_SYSTEM: "Escherichia coli TOP10"
  shrunken log2 fold change: 0.0427
